Cited source: patent US20240002388A1

So I've got a bunch of molecules here, and I need their IC50 values.
- measurement-target: RIPK1 recombination protein (Homo sapiens (Human), UniProt Q13546)
- Sequence (Q13546 other isoform, or with tags, fused parts or gaps): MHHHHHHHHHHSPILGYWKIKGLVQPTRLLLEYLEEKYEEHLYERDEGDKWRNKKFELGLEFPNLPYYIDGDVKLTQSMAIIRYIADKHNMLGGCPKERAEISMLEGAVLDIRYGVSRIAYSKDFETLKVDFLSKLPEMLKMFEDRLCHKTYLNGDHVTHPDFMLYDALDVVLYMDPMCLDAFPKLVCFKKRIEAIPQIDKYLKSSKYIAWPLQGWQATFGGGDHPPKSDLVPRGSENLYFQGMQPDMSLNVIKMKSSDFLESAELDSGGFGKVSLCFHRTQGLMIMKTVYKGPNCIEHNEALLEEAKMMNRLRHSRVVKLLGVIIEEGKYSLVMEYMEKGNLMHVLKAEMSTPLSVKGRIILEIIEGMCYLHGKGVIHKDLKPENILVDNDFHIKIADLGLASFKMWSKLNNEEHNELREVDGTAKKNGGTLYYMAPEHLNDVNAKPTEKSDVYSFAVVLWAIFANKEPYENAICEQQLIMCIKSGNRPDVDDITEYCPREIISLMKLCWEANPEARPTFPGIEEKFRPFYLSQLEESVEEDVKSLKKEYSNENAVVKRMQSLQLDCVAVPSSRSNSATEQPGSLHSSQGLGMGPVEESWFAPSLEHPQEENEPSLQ
- assay-explanation: RIPK1 kinase activity assay (ADP-Glo)
- Assay type: biochemical
- conditions-used: RIPK1 kinase activity, ADP-Glo, 10 μM ATP
Numeric only. Scale: nM

Return reported IC50; argument: `CC(C)n1cncc(-c2ccc(C3(NC(=O)c4nnc(Cc5ccccc5)o4)CC3)cc2)c1=O`
22

Query `CC(C)n1ncc2cnc(C(=O)NC3(c4ccc(-c5cnc(N)n(C)c5=O)cc4)CC3)nc21` next
35

What about `CC(C)Cc1nc(C(=O)NC2(c3ccc(-c4cncn(C)c4=O)cc3)CC2)ncc1Cl` ?
56

Try the molecule `Cn1cncc(-c2ccc(C3(NC(=O)c4nc5n(n4)[C@@H](c4ccccc4)CC5)CC3)cc2)c1=O`
27
